system: TGF/SMAD Signaling Pathway SBE Reporter—HEK293 Cell Line; experiment: Luciferase screen, TGF/SMAD SBE reporter HEK293 cells stimulated with TGFβ; assay type: cell-based; settings: Homo sapiens; SBE reporter-HEK293 cells, TGFβ 10 ng/mL, 18 hours; read-out: Luciferase IC50
pIC50: −log10 of the molar value.
Rule: pIC50 under 7 gives 0 (no), otherwise 1 (yes).

Illustrative cases are given below, each with its answer.
CC1(C)Oc2ncc(-c3nc(-c4ccc(F)cc4)no3)cc2C[C@@H]1O [Example 20] = 0 (no)
Cn1ccc(-c2noc(-c3cnc4c(c3)C[C@@H](O)C(C)(C)O4)n2)n1 [Example 17] = 1 (yes)
Cc1cnc(-c2noc(-c3cnc4c(c3)C[C@@H](O)C(C)(C)O4)n2)s1 [Example 26] = 0 (no)

Turning now to a further molecule:
**Q:** Answer whether pIC50 of CC1(C)Oc2ncc(-c3nc(-c4nccs4)no3)cc2CC1O (stereo in doubt) [Example 14] is greater than or equal to 7.
**A:** 0 (no)
